Give FXa assay % of FXa alone, 20 nM Ab, 10 nM TFPI for every item shown.
- tested_on: recombinant human TFPI (tissue factor pathway inhibitor) (human, UniProt P10646 29-304)
- protocol_details: cell-based or functional assay
Respond numerically; units are % and should not be typed.

For clone 4206 (antibody, V domains shown) VH: EVQLVESGGGLVKPGGSLRLSCAASGFTFSSYAMNWVRQAPGKGLEWVSTITTGGSHTYYADSVEGRFTISRDNAKNSLYLQMDSLRAEDTAVYYCARQDGNFLMDYWGQGTLVTVSS VL: DVVMTQTPLSLPVTLGQPASISCKSSQSLLDVDGKTYLNWLQQRPGQSPKRLIYLVSKLDSGVPDRFTGSGSGTDFTLKISRVEAEDVGVYYCWQGTHLPFTFGQGTKVEIKR the binder record lists FXa assay % of FXa alone, 20 nM Ab, 10 nM TFPI as 38.6

For clone 1023 (antibody, V domains shown, scFv on yeast at selection; human IgG4/kappa IgG as purified) VH: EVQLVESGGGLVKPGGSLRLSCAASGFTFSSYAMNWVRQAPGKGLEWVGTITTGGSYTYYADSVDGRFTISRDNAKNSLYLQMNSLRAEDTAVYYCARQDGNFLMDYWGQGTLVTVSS VL: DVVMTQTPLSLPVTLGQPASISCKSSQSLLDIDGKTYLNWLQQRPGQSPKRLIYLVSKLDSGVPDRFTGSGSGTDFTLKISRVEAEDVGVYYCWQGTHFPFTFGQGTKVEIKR the binder record lists FXa assay % of FXa alone, 20 nM Ab, 10 nM TFPI as 91.7

For clone 4208 (antibody, V domains shown) VH: EVQLVESGGGLVKSGGSLRLSCAASGFTFSSYAMSWVRQAPGKGLEWVGTITTGGSYTYYADSVQGRFTISRDNAKNSLYLQMNSLRAEDTAVYYCARQDGNFLMDYWGQGTLVTVSS VL: DVVMTQTPLSLPVTLGQPASISCKSSQSLLDTDGKTYLNWLQQRPGQSPKRLIYLVSKLDSGVPDRFTGSGSGTDFTLKISRVEAEDVGVYYCWQGTHFPFTFGQGTKVEIKR the binder record lists FXa assay % of FXa alone, 20 nM Ab, 10 nM TFPI as 53.1
